Target: T1, sIL-6R (soluble IL-6 receptor; SBH Sciences) (human, UniProt P08887 20-365)
T1 construct: also called human IL-6R
T1 sequence: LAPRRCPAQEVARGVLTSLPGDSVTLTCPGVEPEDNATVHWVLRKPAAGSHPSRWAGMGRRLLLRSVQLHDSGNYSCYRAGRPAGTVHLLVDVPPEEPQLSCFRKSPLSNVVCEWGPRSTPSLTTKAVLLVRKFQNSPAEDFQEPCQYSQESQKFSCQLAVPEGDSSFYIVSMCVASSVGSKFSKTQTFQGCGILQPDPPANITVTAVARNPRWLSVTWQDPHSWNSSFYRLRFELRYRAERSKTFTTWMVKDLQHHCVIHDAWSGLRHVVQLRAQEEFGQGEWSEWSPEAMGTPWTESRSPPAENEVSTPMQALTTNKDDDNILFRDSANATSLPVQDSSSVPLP
Experiment: SPR; ratio of KD at pH 6.0 to KD at pH 7.4
measurement name: pH dependence (Fold of affinity decrease) (fold)
Reply numerically in fold, unit not repeated.

# count of solved cases: 2
binder	result unit	meas value
206# (antibody, human IgG1, kappa, V domains shown, also called Sample # 206) VH: QVQLQESGPGLVRPSQTLSLTCTVSGYSITSDHAWSWVRQPPGRGLEWIGFISYSGMTTYNPSLKSRVTMLRDTSKNQFSLRLSSVTAADTAVYYCARSLARITAMDYWGQGSLVTVSS VL: DIQMTQSPSSLSASVGDRVTITCRASQDISSYLNWYQQKPGKAPKLLIYYTSRLHSGVPSRFSGSGSGTDFTFTISSLQPEDIATYYCGQGNRLPYTFGQGTKVEIKR	fold	28.4
231# (antibody, human IgG1, kappa, V domains shown, also called Sample # 231) VH: QVQLQESGPGLVRPSQTLSLTCTVSGYSITSDHAWSWVRQPPGRGLEWIGYISYSGITTYNPSLKSRVTMLRDTSKNQFSLRLSSVTAADTAVYYCARTLARMTAIDFWGQGSLVTVSS VL: DIQMTQSPSSLSASVGDRVTITCRASQDISSYLNWYQQKPGKAPKLLIYYTSRLHSGVPSRFSGSGSGTDFTFTISSLQPEDIATYYCQQGNTLPYTFGQGTKVEIKR	fold	95.5

Let us examine a further case.
Exercise: Given the binder 209# (antibody, human IgG1, kappa, V domains shown, also called Sample # 209) VH: QVQLQESGPGLVRPSQTLSLTCTVSGYSITSDHAWSWVRQPPGRGLEWIGFISYSGMTTYNPSLKSRVTMLRDTSKNQFSLRLSSVTAADTAVYYCARSLARITAIDFWGQGSLVTVSS VL: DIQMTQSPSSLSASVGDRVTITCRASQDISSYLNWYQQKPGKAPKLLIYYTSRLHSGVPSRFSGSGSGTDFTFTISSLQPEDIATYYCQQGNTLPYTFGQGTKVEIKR , write its reported pH dependence (Fold of affinity decrease).
Key: 65.5
